- Tested on: UACC-62
- measurement.description: NCI tumour cell line growth inhibition, 48 h
Active and inactive are the calls of the source. Rule as the data show it: active = GI50 up to about 1.1 µM and inactive = higher.
We begin with a simple list: items and their reported GI50.

Worked set:
{"compound": "O=C(Nc1ccc([N+](=O)[O-])cc1)C1C(=O)C(=O)N(c2ccc([N+](=O)[O-])cc2)C1=O (centres undefined)", "readout.label": "GI50", "recorded.measurement": "2.72 µM (inactive)"}
{"compound": "CC(C)c1cc(C(C)C)c(Cl)c(Cl)c1O.CC(C)c1cc(Cl)c(O)c(C(C)C)c1Cl", "readout.label": "GI50", "recorded.measurement": "19.6 µM (inactive)"}
{"compound": "CCC(C)C(C(=O)N/N=C1/SCC(=O)N1C)C(=O)N/N=C1/SCC(=O)N1C (centres undefined)", "readout.label": "GI50", "recorded.measurement": "> 100 µM (inactive)"}

Exercise: Report GI50 for `O=C1c2ccccc2-c2ccc(N(Cc3ccc(Br)cc3)Cc3ccc(Br)cc3)cc21` tested on UACC-62.
Key: > 100 µM (inactive)

Exercise: Again, but for `CC(C)(C)n1[nH]c(=O)n(C(C)(C)C)c1=O`
Key: > 100 µM (inactive)

Exercise: Also check CC(C)(C)C1=C(Br)C(F)(C(C)(C)C)OP1(=O)c1ccccc1 (centres undefined)
Key: 15.3 µM (inactive)

---

Attribute: GI50
- Test system: CAKI-1
- measurement.description: NCI tumour cell line growth inhibition, 48 h
Calls of active or inactive are those of the source. Rule as the data show it: active = GI50 up to about 1.1 µM and inactive = higher.

Exercise: Given the molecule `C=C(Cl)[C@](Cl)(CBr)CC[C@@H](Br)C(C)(C)Cl` , what is its reported GI50?
Key: 0.337 µM (active)

Exercise: Same for `Cc1nc(-n2nc(-c3ccccc3)cc2-c2ccccc2)sc1C(=O)/C=C/c1ccccc1`
Key: 9.79 µM (inactive)

Exercise: Follow-up entry: COC(=O)C1=C(OC(=O)/C(=C/c2ccccc2)c2ccc([N+](=O)[O-])cc2)C(C(=O)OC)[C@@]2(O)[C@@H](C(=O)OC)[C@H](C)C[C@@H]1[C@@H]2C(=O)OC (stereo not given in full)
Key: > 100 µM (inactive)

Exercise: Also, `CN1CCCNCCN(CCc2ccccn2)CCCN(C)CC1` please.
Key: > 100 µM (inactive)

Exercise: Then what about the molecule `CCCCOCCOCCOC1=C(Cl)C(=O)c2c(O)ccc(O)c2C1=O` ?
Key: 0.209 µM (active)

Exercise: Also Fc1cccc(C2SCc3nc4cc5ccccc5cc4n32)c1 (stereo not given) ?
Key: 68.9 µM (inactive)

Exercise: Query CC1(C)C(O)C[C@]23CCC[C@](C)(C[C@@H](O)C12)C3 (stereo not given in full) next
Key: > 100 µM (inactive)

Exercise: Now this one: CCOC(=O)C(NC(=O)c1cccc(Cl)c1)(Nc1cccc(C)c1)C(F)(F)F (stereo not given)
Key: 20.7 µM (inactive)

Exercise: Param item: COc1ccc(/C=C2\CC3C4CC=C5C[C@@H](N6CCCC6)CC[C@]5(C)C4CC[C@]3(C)[C@H]2O)cc1OC (stereo not given in full)
Key: 8.65 µM (inactive)

---

- Test system: CCRF-CEM
- measurement.description: NCI tumour cell line growth inhibition, 48 h
Activity calls are given as the source filed them. Rule as the data show it: active = GI50 up to about 1.1 µM and inactive = higher.
readout.label: GI50

Exercise: Tell me the measured GI50 of COc1ccc(C(c2ccc(OC)cc2)N2C(=O)CCC2C(=O)O)cc1 (configuration not stated) , please.
Key: > 100 µM (inactive)
